- target: KRAS G12D (Homo sapiens, UniProt P01116, G12D)
- Sequence (P01116 1-188 isoform P01116-2 G12D): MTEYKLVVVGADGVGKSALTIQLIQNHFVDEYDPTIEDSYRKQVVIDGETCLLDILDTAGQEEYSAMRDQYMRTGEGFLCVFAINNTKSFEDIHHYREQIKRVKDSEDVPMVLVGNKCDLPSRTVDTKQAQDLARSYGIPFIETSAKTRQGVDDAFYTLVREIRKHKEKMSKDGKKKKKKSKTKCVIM
- run.description: KRAS G12D Probe Displacement Assay (TR-FRET, GDP-loaded)
- Type: binding
- details: KRAS G12D, read-out: KRAS^G12D Probe Displacement Assay IC50
endpoint.label: IC50

Inquiry: What measured IC50 goes with Cc1cc(N)cc(-c2nc3c4c(nc(OCC5(F)COCC5N(C)C)nc4c2F)N2C[C@H]4CC[C@H](N4)[C@H]2CCO3)c1C(F)(F)F (some centres unmarked) [Example 132] ?
Reply text: 0.3 to 3 nM

Inquiry: What measured IC50 goes with COC1CN(C)CC(C)(COc2nc3c4c(nc(-c5cc(N)cc(C)c5C(F)(F)F)c(F)c4n2)OCC[C@@H]2[C@@H]4CC[C@H](CN32)N4)C1 (some centres unmarked) [Example 127] ?
Reply text: < 0.3 nM

Inquiry: What measured IC50 goes with Cc1cc(N)cc(-c2nc3c4c(nc(OCC5(CN6CCC7(C6)CC7(F)F)CC5)nc4c2F)N2C[C@H]4CC[C@H](N4)[C@H]2CCO3)c1C(F)(F)F (mixture of isomers) [Example 90] ?
Reply text: < 0.3 nM

Inquiry: What measured IC50 goes with Cc1cc(N)cc(-c2nc3c4c(nc(OCC5(CN6CC(F)C6)CC5)nc4c2F)N2C[C@H]4CC[C@H](N4)[C@H]2CCO3)c1C(F)(F)F [Example 69] ?
Reply text: < 0.3 nM

Inquiry: What measured IC50 goes with Cc1cc(N)cc(-c2nc3c4c(nc(OCC5(C6CCCN6C)CC5)nc4c2F)N2C[C@H]4CC[C@H](N4)[C@H]2CCO3)c1C(F)(F)F (single isomer, unassigned) [Example 133] ?
Reply text: < 0.3 nM

====

- target: KRAS G12D (Homo sapiens, UniProt P01116, G12D)
- run.description: KRAS G12D Probe Displacement Assay (TR-FRET, GDP-loaded)
- Type: binding
- details: KRAS G12D, read-out: KRAS^G12D Probe Displacement Assay IC50
Please go through the items and note down their IC50.

Inquiry: What measured IC50 goes with [2H]C([2H])([2H])c1cc(N)cc(-c2nc3c4c(nc(OCC56C[C@@H](F)CN5C[C@H](F)C6)nc4c2F)N2C[C@H]4CC[C@H](N4)[C@H]2CCO3)c1C(F)(F)F ?
Reply text: < 0.3 nM

Inquiry: What measured IC50 goes with Cc1cc(N)cc(-c2nc3c4c(nc(O[C@@H](C)[C@@H]5C[C@@H](F)CN5C)nc4c2F)N2C[C@H]4CC[C@H](N4)[C@H]2CCO3)c1C(F)(F)F ?
Reply text: < 0.3 nM

Inquiry: What measured IC50 goes with Cc1cc(N)cc(-c2nc3c4c(nc(OCC5(CN6C[C@H](C)O[C@@H](C)C6)CC5(F)F)nc4c2F)N2C[C@H]4CC[C@H](N4)[C@H]2CCO3)c1C(F)(F)F (single isomer, unassigned) ?
Reply text: 0.3 to 3 nM

Inquiry: What measured IC50 goes with Cc1cc(N)cc(-c2nc3c4c(nc(O[C@@H](C)[C@@H]5CCCN5CCF)nc4c2F)N2C[C@H]4CC[C@H](N4)[C@H]2CCO3)c1C(F)(F)F ?
Reply text: < 0.3 nM

Inquiry: What measured IC50 goes with Cc1cc(N)cc(-c2nc3c4c(nc(OCC5(CN6CCC[C@H]6C)CC5)nc4c2F)N2C[C@H]4CC[C@H](N4)[C@H]2CCO3)c1C(F)(F)F ?
Reply text: < 0.3 nM

Inquiry: What measured IC50 goes with Cc1cc(N)cc(-c2nc3c4c(nc(OCC5(C)CC(F)CN(C)C5)nc4c2F)N2C[C@H]4CC[C@H](N4)[C@H]2CCO3)c1C(F)(F)F (stereo partly drawn) ?
Reply text: < 0.3 nM

Inquiry: What measured IC50 goes with COC1CN(CC2(COc3nc4c5c(nc(-c6cc(N)cc(C)c6C(F)(F)F)c(F)c5n3)OCC[C@@H]3[C@@H]5CC[C@H](CN43)N5)CC2)CC1F (single isomer, unassigned) ?
Reply text: < 0.3 nM

Inquiry: What measured IC50 goes with Cc1cc(N)cc(-c2nc3c4c(nc(OCC5(CN6C[C@@H]7C[C@@H]7[C@H]6C)CC5)nc4c2F)N2C[C@H]4CC[C@H](N4)[C@H]2CCO3)c1C(F)(F)F ?
Reply text: < 0.3 nM

Inquiry: What measured IC50 goes with Cc1cc(N)cc(-c2nc3c4c(nc(OCC5(CN6CC(O)(C(F)(F)F)C6)CC5)nc4c2F)N2C[C@H]4CC[C@H](N4)[C@H]2CCO3)c1C(F)(F)F ?
Reply text: < 0.3 nM

Inquiry: What measured IC50 goes with Cc1cc(N)cc(-c2nc3c4c(nc(OCC5(CN6CCN(C7CC7)CC6)CC5)nc4c2F)N2C[C@H]4CC[C@H](N4)[C@H]2CCO3)c1C(F)(F)F ?
Reply text: < 0.3 nM

Inquiry: What measured IC50 goes with CCN1CC(F)CC(C)(COc2nc3c4c(nc(-c5cc(N)cc(C)c5C(F)(F)F)c(F)c4n2)OCC[C@@H]2[C@@H]4CC[C@H](CN32)N4)C1 (stereo partly drawn) [Example 203] ?
Reply text: 0.3 to 3 nM

Inquiry: What measured IC50 goes with Cc1cc(N)cc(-c2nc3c4c(nc(O[C@@H]5CCOC[C@H]5N(C)C)nc4c2F)N2C[C@H]4CC[C@H](N4)[C@H]2CCO3)c1C(F)(F)F ?
Reply text: 3 to 1000 nM
